The entries below are paired with their reported cell count.
experiment: viability loss with induced miR-34 in A549 – imaging, A549 dox-inducible miR-34, nuclei and caspase counts, primary screen (AID 1347080); conditions: A549 miR-34 inducible, Hoechst nuclei count, 48 h; measured here: total cells with miR-34 induction; stronger effect = lower value
Write the number on its own, no unit after it.

Illustrative cases are given below, each with its answer.
CCOC(=O)c1c(C)n[nH]c1C; 8840
Nc1nc(Cl)nc2c1ncn2C1OC(CO)C(O)C1O (configuration not stated); 2120
CC(=O)Nc1c(I)c(C(=O)N[C@H]2C(O)O[C@H](CO)[C@@H](O)[C@@H]2O)c(I)c(N(C)C(C)=O)c1I (some centres not stated); 9390
Cc1ccc2c(c1)N(Cc1nc(C(C)(C)C)no1)C(=O)CO2; 6310
C=C1C[C@@]23CC[C@H]4[C@@](C)(CCC[C@@]4(C)C(=O)OC4OC(CO)C(O)C(O)C4O)[C@@H]2CC[C@]1(OC1OC(CO)C(O)C(O)C1OC1OC(CO)C(O)C(O)C1O)C3 (some centres not stated); 10700
Cc1nc(N=Nc2ccc(S(=O)(=O)O)cc2S(=O)(=O)O)c(COP(=O)(O)O)c(C=O)c1O; 9390
COc1cc2c(cc1-c1c(C)noc1C)ncc1[nH]c(=O)n(C(C)c3ccccn3)c12 (configuration not stated); 7600
COCCOc1cc2ncnc(Cl)c2cc1OCCOC; 9200

Item under review: O=C(O)c1cc(I)ccc1NC(=O)C(Cc1ccccc1)NCc1ccccc1 (configuration not stated) . Reported cell count?
8450

Item under review: CC(=O)O[C@H]1C[C@@]2(C)[C@@H](C[C@@H](O)[C@H]3[C@@]4(C)CC[C@@H](O)[C@@H](C)C4CC[C@@]32C)/C1=C(\CCC=C(C)C)C(=O)O (some centres not stated) . Reported cell count?
8570

Item under review: "O=C(O)CNC(=O)NC1CCCCC1" . Reported cell count?
9060

Item under review: O=C1O[C@H](C(O)CO)C(O)C1O (some centres not stated) . Reported cell count?
8460

Item under review: Cc1onc(-c2ccccc2Cl)c1C(=O)NC1C(=O)N2C(C(=O)O)C(C)(C)S[C@@H]12 (some centres not stated) . Reported cell count?
9670

Item under review: CCOC1O[C@H]([C@@H](COCc2ccccc2)OCc2ccccc2)[C@H](OCc2ccccc2)[C@H]1O (some centres not stated) . Reported cell count?
8110

Item under review: "CC[C@@H](C)[C@H]1O[C@]2(CC[C@@H]1C)C[C@@H]1C[C@@H](C/C=C(\C)[C@@H](O[C@H]3C[C@H](OC)[C@@H](O[C@H]4C[C@H](OC)[C@@H](O)[C@H](C)O4)[C@H](C)O3)[C@@H](C)/C=C/C=C3\CO[C@@H]4[C@H](O)C(C)=C[C@@H](C(=O)O1)[C@]34O)O2" . Reported cell count?
1760

Item under review: "CCN1C(=CC(C)=O)Sc2ccc(OC)cc21" . Reported cell count?
6850

Item under review: CCc1cnn2c(NCc3ccc[n+]([O-])c3)cc(N3CCCCC3CCO)nc12 (configuration not stated) . Reported cell count?
1750

Item under review: "CNCc1ccccc1-c1cccs1" . Reported cell count?
8130

Item under review: "C[N+](C)(C)[C@@H](Cc1c[nH]c(=S)[nH]1)C(=O)[O-]" . Reported cell count?
9810

Item under review: "Cc1ccc(C(=O)NCCCCCC(=O)Nc2ccccc2N)cc1" . Reported cell count?
4890

Item under review: "Cc1cc(NC(=O)Nc2ccc3c(ccn3C)c2)sn1" . Reported cell count?
9080

Item under review: "Cc1nsc(NC(=O)NCc2ccccc2-n2ccnc2C)n1" . Reported cell count?
9020

Item under review: "COc1ccc2cc1Oc1ccc(cc1)C[C@@H]1c3c(cc4c(c3Oc3cc5c(cc3OC)CCN(C)[C@@H]5C2)OCO4)CCN1C" . Reported cell count?
4290

* * *

test: MELAS cybrid and Rieske KO viability enhancers – cell-based, MELAS cybrids, Rieske KO mouse fibroblasts, CellTiter-Glo, primary screen (AID 1508586); settings: Rieske KO mouse fibroblast survival, low glucose, CellTiter-Glo 72 h;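 also: z relative to plate mean and SD of compound and empty wells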
REPORTED PROPERTY: z-score
Write the number on its own, no unit after it.

Illustrative cases are given below, each with its answer.
Cc1cc(-c2cnn(C)c2)nc(N)n1; -0.642
CC(C)[C@@H]1NC(=O)[C@H]2CN(C(=O)c3ccccc3Cl)CCN2C1=O; -0.445
CC(C)CCN1C(=O)N(CC(N)=O)C(=O)C12CCN(Cc1nc3ccccc3s1)CC2; -0.574
CCc1nc(NC(=O)N(C)CC2Cc3ccccc3O2)nn1C (stereo not given); -0.335
C[C@]12C=CC(=O)C=C1CC[C@H]1[C@@H]3CC(O)[C@@](O)(C(=O)CO)[C@@]3(C)CC(O)[C@]12F (stereo not given in full); -0.119
CCNC(=O)C1OC(n2cnc3c(N)nc(NCCc4ccc(CCC(=O)O)cc4)nc32)C(O)C1O (stereo not given); -0.329
CCc1ccc(CNc2cnc3c(c2)c(NC(=O)c2cccnc2)c(C(=O)OC)n3CC(C)C)o1; 4.55
Nc1ncc(Cc2ccccc2)s1; -0.511

Item under review: "CCCCNC(=O)[C@@H]1C[C@H](CN2CCOCC2)CN(Cc2ccccc2)C1" . Reported z-score?
-0.282

Item under review: "CCOc1ccccc1O[C@@H](c1ccccc1)[C@H]1CNCCO1" . Reported z-score?
-0.0896

* * *

experiment: growth inhibition, single agents and combos, LFS_MB_1R, cell-based, cisplatin or BGB combos, synergistic combos for chromothripsis tumors (AID 1671452); details: LFS_MB_1R medulloblastoma cells, at 0.5 µM;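 also: cells exposed for 96 hours before readout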
Calls of active or inactive are those of the source. Rule as the data show it: active = inhibition above about 80%; inactive = the rest.
Returns: one label drawn from active, inactive

CC(C)OC(=O)[C@H](C)NP(=O)(OC[C@H]1O[C@@H](n2ccc(=O)[nH]c2=O)C(C)(F)[C@@H]1O)Oc1ccccc1 (stereo not given in full); inactive
O=C1N=c2ccccc2=C1c1c(O)[nH]c2ccccc12; inactive
CC(=O)C1(O)Cc2c(O)c3c(c(O)c2C(OC2CC(N)C(O)C(C)O2)C1)C(=O)c1ccccc1C3=O (stereo not given); active
NC(=O)c1cccc2[nH]c(-c3ccc(C4CCCN4)cc3F)nc12 (stereo not given); inactive
CCC(Sc1nnc2c3ccccc3n(CC)c2n1)C(=O)Nc1ccccc1OC (stereo not given); inactive

What did the test return for CC1CNC(=O)NC1=O (stereo not given) ?
inactive

What did the test return for "COc1nc(N)nc2c1ncn2[C@@H]1O[C@H](CO)[C@@H](O)[C@H]1O" ?
inactive

What did the test return for O=c1[nH]cnc2c1ncn2C1CCC(CO)O1 (stereo not given) ?
inactive

What did the test return for "Cc1cc(C=CC#N)cc(C)c1Nc1ccnc(Nc2ccc(C#N)cc2)n1" ?
inactive

What did the test return for COc1cccc2c1C(=O)c1c(O)c3c(c(O)c1C2=O)CC(O)(C(C)=O)CC3OC1CC(N)C(O)C(C)O1 (stereo not given) ?
active

* * *

test: viability loss with induced miR-34 in A549 – imaging, A549 dox-inducible miR-34, nuclei and caspase counts, primary screen (AID 1347080); settings: A549 miR-34 inducible, Hoechst nuclei count, 48 h; stronger effect = lower value; cell number ratio, induced over uninduced
The entries below are paired with their reported fold change.
Write the number on its own, no unit after it.

Item under review: "Clc1ccc2ncnc(NCc3ccc4c(c3)OCO4)c2c1" . Reported fold change?
0.968

* * *

experiment: growth inhibition, single agents and combos, LFS_MB_2R, cell-based, cisplatin combos, synergistic combos for chromothripsis tumors (AID 1671457); settings: LFS_MB_2R medulloblastoma cells, measured here: combination with cisplatin, at 5 µM, stronger effect = higher value;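 also: cells exposed to compound for four days before readout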
Tick criterion met if inhibition is 20% or greater. Tick criterion not met if inhibition is less than 20%.

Worked examples, 3 molecules total:
O=c1ccn(C2CC(O)C(CO)O2)c(=O)[nH]1 (stereo not given); criterion not met
O=c1[nH]c(=S)[nH]c2nc(-c3ccccc3)c(-c3ccccc3)nc12; criterion not met
C=C1C(=O)O[C@@H]2C=C(C)CCC=C(C)CC[C@@H]12; criterion met

Hi team, for "COc1ccccc1S(=O)(=O)Nc1ccc2c(c1)CN(C)C(=O)N2" , is the recorded inhibition at or above 20%?
criterion met

Hi team, for C=C(NC(=O)C(=C)NC(=O)c1csc(C2=NC3c4csc(n4)C4NC(=O)c5csc(n5)C(C(C)(O)C(C)O)NC(=O)C5CSC(=N5)/C(=C/C)NC(=O)C(C(C)O)NC(=O)c5csc(n5)C3(CC2)NC(=O)C(C)NC(=O)C(=C)NC(=O)C(C)NC(=O)C(C(C)CC)NC2C=Cc3c(C(C)O)cc(nc3C2O)C(=O)OC4C)n1)C(N)=O (stereo not given) , is the recorded inhibition at or above 20%?
criterion met

Hi team, for O=c1[nH]cnc2c1ncn2C1CCC(CO)O1 (stereo not given) , is the recorded inhibition at or above 20%?
criterion not met

Hi team, for "O=C(CCCCCCC(=O)Nc1ccc(I)cc1)NO" , is the recorded inhibition at or above 20%?
criterion met

Values were extracted from PubChem BioAssay.
